- Protocol text: High-throughput drug toxicity screening in the BPDCN cell line Cal-1 (AID 1224825);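 further: cells exposed to compounds for 48 h; 100% = DMSO and 0% = bortezomib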
- Conditions used: Cal-1 BPDCN cell viability, qHTS; at 45.8 µM (top of the series)

{"columns": ["Compound", "viability (% of control) / %"],
 "data": [
  ["CCCC[N+]1(C)[C@H]2CC(OC(=O)[C@H](CO)c3ccccc3)C[C@H]1[C@H]1O[C@H]12 (stereo partly specified)", 120],
  ["C[C@]12Cc3cn[nH]c3C[C@@H]1CC[C@@H]1[C@H]2CC[C@@]2(C)[C@H]1CC[C@]2(C)O", 111],
  ["COc1ccc2c(c1)CN(C)CC2c1ccc(Cl)c(Cl)c1 (stereo unspecified)", 12.2],
  ["CCOC(=O)c1c(C(C#N)=CN)c2ccc(Cl)c(Cl)c2n1C", 94.3],
  ["C[C@]12CC[C@H]3[C@@H](CCC4=CC(=O)CC[C@@]43C)[C@H]1CC[C@H]2O", 101],
  ["O=C(Oc1ccc([N+](=O)[O-])cc1)N1CCN(Cc2cccc(Oc3ccccc3)c2)CC1", 54.4]
]}
